log10 ED50 reference
Biological target: β2-receptors of the cardiovascular system (Canis lupus familiaris, UniProt P54833)
Construct: from tissue; host or cells: femoral vascular bed of the living anaesthetised mongrel dog
Sequence (P54833 whole entry): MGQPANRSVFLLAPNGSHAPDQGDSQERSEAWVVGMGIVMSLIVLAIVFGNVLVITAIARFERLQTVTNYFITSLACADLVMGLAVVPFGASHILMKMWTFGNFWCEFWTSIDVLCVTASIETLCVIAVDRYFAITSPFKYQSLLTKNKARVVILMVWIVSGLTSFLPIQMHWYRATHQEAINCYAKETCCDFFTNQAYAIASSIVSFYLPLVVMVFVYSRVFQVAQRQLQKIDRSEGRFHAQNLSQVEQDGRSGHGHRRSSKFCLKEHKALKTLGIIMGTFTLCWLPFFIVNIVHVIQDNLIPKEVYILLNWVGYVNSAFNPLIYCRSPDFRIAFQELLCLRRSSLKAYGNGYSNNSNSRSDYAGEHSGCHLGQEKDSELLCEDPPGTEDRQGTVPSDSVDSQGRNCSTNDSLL
Assay: Blocking of Isoproterenol-induced alteration of peripheral perfusion of the femoral artery in anaesthetised dogs (β2-receptor inhibition)
Type: in vivo, mongrel dogs
Details: dog; intravenous; 50 % inhibition of reaction to Isoproterenol 0.05 gamma/kg intra-arterial; anaesthetised dogs; read-out: β2-receptor inhibition ED 50
Could you please treat all values as log10 of ED50 in mg/kg?

These solved cases illustrate the format of a correct answer.
1. CCCCOc1ccc(OCC(O)CNC(C)CC(O)c2ccc(C)nc2)cc1 (centres unmarked) :: 1.51
2. CCCCCOc1ccc(OCC(O)CNC(C)CC(O)c2ccc(C)nc2)cc1 (centres unmarked) :: 0.89

Answer with reported log10 ED50 of CC(=O)Nc1ccc(OCC(O)CNC(C)CC(O)c2ccc(C)nc2)cc1 (centres unmarked)
0.30

Answer with reported log10 ED50 of CCCOc1ccc(OCC(O)CNC(C)CC(O)c2ccc(C)nc2)cc1 (centres unmarked)
0.26

Answer with reported log10 ED50 of CC(=O)Nc1ccc(OCC(O)CNC(C)C)cc1 (centres unmarked) [reference compound]
1.42
